The reader will find reported GI50 values listed item by item below.
tested on: SN12C renal; assay: NCI tumour cell line growth inhibition, 48 h

# annotated cases, reported GI50 shown
| compound | GI50 |
| --- | --- |
| COc1cc(/C=C2\CN(S(=O)(=O)c3ccc(C)cc3)C/C(=C\c3cc(CN4CCCC4)c(O)c(OC)c3)C2=O)cc(CN2CCCC2)c1O | 1.24 µM |
| CN1CCN(C(=O)COc2ccc(C34CC5CC(CC(C5)C3)C4)cc2)CC1 | 12.6 µM |
| Cc1nnc2ccnn2c1C | > 100 µM |

*Q* Give GI50 (SN12C renal) of the following compound: CN(C)CC(O)c1ccc(/C=C/c2ccc(Cl)cc2)cc1 (stereo not given)
*A* 10.4 µM

*Q* Then COC(=O)c1cc2oc(/C=C3/SC(=S)N(NC(C)=O)C3=O)cc2n1C ?
*A* 21.9 µM

###

system: SNB-19 CNS; test: NCI tumour cell line growth inhibition, 48 h
Attribute: TGI
Number only, in µM; omit the unit.

| compound | experimentalTarget | TGI [µM] |
| --- | --- | --- |
| N=c1oc2ccccc2cc1C(=O)NC12CC3CC(CC(C3)C1)C2 | SNB-19 CNS | 80.5 |
| CCCC/C=C/C=C/C=C/CCCCCCCC(=O)OCC(COC(=O)CCCCCCC/C=C/C1C=CC(CCCC)C(C(=O)O)C1C(=O)O)OC(=O)CCCCCCC/C=C/C=C/C=C/CCCC (stereo not given) (tested in a mixture with another compound) | SNB-19 CNS | 46.1 |
| COc1ccccc1NC(=O)c1cc2cc(Br)ccc2cc1O | SNB-19 CNS | 16.1 |

*Q* Given the entry Cc1ccc(S[C@@H](C)[C@@](O)(CF)CN(Cc2ccccc2)C(=O)C(F)(F)F)cc1 , report its measured TGI.
*A* 55

###

Overview of recorded TGI for various molecules
tested on: 786-0 renal; assay: NCI tumour cell line growth inhibition, 48 h
*1 amine or outer side, *2 acyl side, *3 side chain or, on linkers, in order; H or OH if unused. Where a SMILES comes first, the peptide text is derived from it. Bridges are numbered along the chain shown (N, C = ends). Roman numbers before positions name the chains, in order. [ ]: non-standard residue; d: D form. Actinocin(9to1) = Cc1c2oc3c(C)ccc(C(=O)[*:1])c3nc-2c(C(=O)[*:2])c(N)c1=O; NMeV = CN[CH](C(=O)O)C(C)C; Sar = CNCC(=O)O

| molecule | readoutValue |
| --- | --- |
| Cc1ccc(Nc2nc(NNC(=O)Cc3ccccc3)nc(NNC(=O)c3ccncc3)n2)cc1 | > 10 µM |
| Cc1c2oc3c(C)ccc(C(=O)NC4C(=O)NC(C(C)C)C(=O)N5CCCC5C(=O)N(C)CC(=O)N(C)C(C(C)C)C(=O)OC4C)c3nc-2c(C(=O)NC2C(=O)NC(C(C)C)C(=O)N3CCCC3C(=O)N(C)CC(=O)N(C)C(C(C)C)C(=O)OC2C)c(N)c1=O (stereo not drawn) (I: TVP[Sar][NMeV] / II: TVP[Sar][NMeV]; ester I:1-I:C, II:1-II:C; linker I:N-II:N via Actinocin(9to1); configuration not given here) | > 1 µM |
| CCn1cnc2c(=S)nc(N)[nH]c21 | > 100 µM |

*Q* Please report the recorded TGI for CON(C)C(=O)C(C)N(Cc1ccccc1)Cc1ccccc1 (stereo not drawn) .
*A* > 100 µM

*Q* Then this molecule: Cc1cc2c(cc1C)[n+](=O)c(C(=O)c1ccccc1)c(C(F)F)n2[O-]
*A* > 100 µM

*Q* For O=C(O)Cc1ccc([N+](=O)[O-])cc1[N+](=O)[O-] then?
*A* > 100 µM

*Q* // repeat for CCN(CC)CCCNC(=O)c1cc(-c2nccn2C)nc2ccccc12 and report
*A* > 100 µM

*Q* Another molecule to check: Cc1ccc(S(=O)(=O)N2C3C=CC(C3)[C@@H]2C(Cl)(Cl)Cl)cc1 (stereo partly drawn)
*A* 49.5 µM

###

system: OVCAR-5 ovarian; experiment: NCI tumour cell line growth inhibition, 48 h; in the data active = GI50 below about 0.43 µM; inactive = the rest
*1 amine or outer side, *2 acyl side, *3 side chain or, on linkers, in order; H or OH if unused. Where a SMILES comes first, the peptide text is derived from it. Bridges are numbered along the chain shown (N, C = ends). Roman numbers before positions name the chains, in order. [ ]: non-standard residue; d: D form. Actinocin(9to1) = Cc1c2oc3c(C)ccc(C(=O)[*:1])c3nc-2c(C(=O)[*:2])c(N)c1=O; NMeV = CN[CH](C(=O)O)C(C)C; Sar = CNCC(=O)O
Your answer must be one of the following: yes (1) (active), no (0) (inactive)

Consider the following illustrative entries.
| compound | qualitativeLabel |
| --- | --- |
| COc1cc(-c2nn(-c3cccc(NC(=O)c4ccccc4)c3)cc2-c2ccncc2)ccc1Cl | no (0) |
| CCCCCCCCCCSC(=N)N (tested in a mixture with another compound) | no (0) |
| Cc1c2oc3c(C)ccc(C(=O)NC4C(=O)NC(C(C)C)C(=O)N5CCCC5C(=O)N(C)CC(=O)N(C)C(C(C)C)C(=O)OC4C)c3nc-2c(C(=O)NC2C(=O)NC(C(C)C)C(=O)N3CCCC3C(=O)N(C)CC(=O)N(C)C(C(C)C)C(=O)OC2C)c(N)c1=O (stereo unspecified) (I: TVP[Sar][NMeV] / II: TVP[Sar][NMeV]; ester I:1-I:C, II:1-II:C; linker I:N-II:N via Actinocin(9to1); configuration not given here) | yes (1) |
| C=C1C(=O)O[C@H]2[C@H]1CC/C(CNC(=O)c1cc3ccccc3[nH]1)=C\CC[C@@]1(C)O[C@@H]21 | no (0) |
| O=C1OCC2=C1C(c1cccc(Br)c1)c1cc3c(cc1N2CCO)OCCO3 (stereo unspecified) | yes (1) |
| [O-][Cl+3]([O-])([O-])[O-].[O]=[Ru]=[O].c1ccc(-c2ccccn2)nc1.c1ccc(-c2ccccn2)nc1 | no (0) |

*Q* I'd appreciate the recorded outcome for O=[N+]([O-])c1cc([N+](=O)[O-])c(C(F)(F)F)cc1NN=C(c1ccc(O)cc1)c1ccc(O)cc1 from this test.
*A* no (0)

*Q* Field entry: CN1CCN(C(=O)COc2ccc(C34CC5CC(CC(C5)C3)C4)cc2)CC1
*A* no (0)

*Q* One more compound: Cc1ccc(-c2nc(N3CCNCC3)c3oc(-c4ccc(C)cc4)nc3n2)cc1
*A* no (0)

*Q* // next record COc1ccc(Cn2c(Br)c3c(c2Br)-c2nc(N)sc2CC3)cc1
*A* no (0)

*Q* Request: COc1ccc(C(c2cc(OC)c(OC)c(OC)c2)n2cncn2)cc1O (stereo unspecified)
*A* no (0)

*Q* Please do the same for Cc1ccc(NC2=C3CCCCC3OC2=O)cc1 (stereo unspecified) as well.
*A* no (0)

*Q* Another compound: NCCNCCNCCN
*A* no (0)

###

tested on: A549 NSCLC; experiment: NCI tumour cell line growth inhibition, 48 h; in the data active = GI50 below about 0.43 µM; inactive = the rest
Could you please pick one outcome from this set? active, inactive

| molecule | qualitativeLabel |
| --- | --- |
| Cc1ccc(NC2=C3CCCCC3OC2=O)cc1 (stereo not drawn) | inactive |

*Q* Tell me the recorded outcome of this test for CCCCCCOc1ccc(/C=N/Nc2cc(C)nc3ccc(Cl)cc23)cc1 .
*A* inactive

*Q* What about CC(C)(C)[Si](C)(C)OC1[C@@H](O[Si](C)(C)C(C)(C)C)[C@@H](CNC(=O)NC(=O)C(F)(F)F)O[C@H]1n1cnc2c(NC(=O)Nc3ccccc3)ncnc21 (stereo partly drawn) ?
*A* inactive

*Q* Also c1ccc(-c2n(Cc3ccc4ccccc4n3)cc[n+]2Cc2ccc3ccccc3c2)cc1 , if possible.
*A* inactive

*Q* Also CC(=O)N[C@@H](Cc1ccc(OP(=O)(O)O)cc1)C(=O)N[C@H]1CCC(=O)N2CCC[C@@H](C(=O)Nc3cccc4ccccc34)N2C1=O , if possible.
*A* inactive

*Q* Next: O=C1C(C(Nc2ccccc2)c2ccccc2)=C([O-])c2ccccc21.O=C1C(C(Nc2ccccc2)c2ccccc2)=C([O-])c2ccccc21.[Cu+2] (stereo not drawn)
*A* inactive

*Q* Another molecule to check: CC(C)[C@@H]1NC(=O)[C@]2(C)CSC(=N2)c2ccnc(c2)CNC(=O)C[C@@H](/C=C/CCS)OC1=O
*A* active

*Q* Now consider O=C1OCC2=C1C(c1cccc(Br)c1)c1cc3c(cc1N2CCO)OCCO3 (stereo not drawn) and answer again.
*A* active

###

Recorded TGI, one value per entry.
test system: T-47D breast; assay: NCI tumour cell line growth inhibition, 48 h

// worked examples, TGI included
| compound | TGI |
| --- | --- |
| O=C1c2sc(-c3ccc(Cl)cc3)cc2-n2cccc21 | > 100 µM |
| COCOC1/C=C/CCCCC(=O)C(C)C#CC1 (centres undefined) | 6.39 µM |
| C=C(C)C(=O)O[C@@H]1C[C@@]2(C)O[C@@H]2C[C@H](O)/C(C)=C/[C@H]2OC(=O)C(=C)[C@@H]21 | > 100 µM |
| CC(C)C(NC(=O)Oc1ccccc1)C(=O)NC1c2c(Br)sc(Br)c2C(=O)C1O (centres undefined) | 16.7 µM |
| COC(=O)CC(C)(NS(=O)c1ccc(C)cc1)c1ccccc1 (centres undefined) | > 100 µM |

*Q* Requested field: TGI. Item: CC(=O)OCc1ccc2c(c1)C(O)NC(=O)O2 (centres undefined)
*A* > 100 µM

*Q* Follow-up entry: COc1cc2c(cc1OC)C(Cl)C(c1ccc(F)cc1)=C2Cl (centres undefined)
*A* 21.7 µM

*Q* And then O=c1[nH]c(=O)n(C2COC(CO)C2O)cc1F (centres undefined) , what is it?
*A* > 100 µM

*Q* Cool, now CCOC(=O)C(=[N+]=[N-])C(=O)CN1C(=O)c2ccccc2C1=O
*A* > 100 µM

All values here come from PubChem BioAssay (NCI).
